Measured values drawn from patent US5411740A for this set.

Assay: clinical
Conditions: human, in vivo, topical or ocular, plasma oxybutynin concentration, two 10 cm^2 systems on inner thigh; after 24 hours
REPORTED_PROPERTY: concentration at 24 h
# answer = value followed by unit

What value of concentration at 24 h has been reported for the following molecule? CCN(CC)CC#CCOC(=O)C(O)(c1ccccc1)C1CCCCC1 (stereo not shown)
1.1 ng/mL

---

Experiment: clinical
Settings: human, in vivo, topical or ocular, plasma oxybutynin level, additional subject (the other), two 10 cm^2 systems on inner thigh; after 12 hours
REPORTED_PROPERTY: concentration at 12 h (ng/mL)
The answer is to be given in ng/mL; state only the numeric part.

What value of concentration at 12 h has been reported for the following molecule? CCN(CC)CC#CCOC(=O)C(O)(c1ccccc1)C1CCCCC1 (stereo not shown)
0.7
